Hi there, I'd appreciate the recorded inhibition for every entry that follows.
test: Gli-Sufu pathway antagonists, primary screen, luciferase luminescence, Sufu-KO-LIGHT cells, uHTS (AID 588413); conditions: Sufu-KO-LIGHT fibroblasts, Gli luciferase reporter luminescence; at 5 µM; stronger effect = higher value;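 note: 0% = DMSO-treated cells and 100% = wells with medium but no cells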
About 2,500 (0.74%) of roughly 340,000 compounds were called active. Shown is part of a subset that was picked to be rich in actives.
Give the number; % is assumed, so skip it.

Query: Could you tell me which inhibition is on file for COc1ccc(S(=O)(=O)N2CCCC(C(=O)NCCCn3ccnc3)C2)cc1OC (centres undefined) ?
Reply: 15.1

Query: Return reported inhibition; argument: CCCCn1nc(C(=O)OCC(=O)Nc2sccc2C(N)=O)c2ccccc2c1=O
Reply: -33

Query: Please give the measured inhibition for this compound: CN1CCN(c2cc(=O)n(-c3ccc(Cl)cc3)c(=O)[nH]2)CC1
Reply: 7.35

Query: Can you look up the measured inhibition of COc1cc(Cl)c(C)cc1NC(=O)CN1CCCCCC1 for me?
Reply: 40.6

Data provenance: PubChem BioAssay AID588413
